Examples of compounds with documented MIC follow.
system: Fusarium solani f. sp. pisi (MP VI); assay: Broth microdilution MIC of individual antifungals; format: cell-based; details: Fusarium solani f. sp. pisi (MP VI); individual antifungal, 25% PDB, about 25° C., 72 hours; range over N independent triplicate studies; read-out: Independent MIC

// worked examples, MIC included
What is its MIC for Fusarium solani f. sp. pisi (MP VI)? Entry: Nc1ccc2c(c1)COB2O [B2]
> 32 µg/mL

What is its MIC for Fusarium solani f. sp. pisi (MP VI)? Entry: Cc1ccc2c(c1)COB2O [B1]
2 µg/mL

What is its MIC for Fusarium solani f. sp. pisi (MP VI)? Entry: O=C1C2CC=CCC2C(=O)N1SC(Cl)(Cl)Cl (stereo not shown) [Captan, captan]
3 to 3.12 µg/mL

What is its MIC for Fusarium solani f. sp. pisi (MP VI)? Entry: OB1OCc2cc(F)ccc21 [B90]
0.5 to 1 µg/mL

---
What is its MIC for Fusarium solani f. sp. pisi (MP VI)? Entry: S=C(S)NCCNC(=S)S [Zineb, zineb]
6.25 to 12.5 µg/mL

What is its MIC for Fusarium solani f. sp. pisi (MP VI)? Entry: COC(=O)N(OC)c1ccccc1COc1ccn(-c2ccc(Cl)cc2)n1 [Pyraclostrobin, pyraclostrobin]
100 to 200 µg/mL

What is its MIC for Fusarium solani f. sp. pisi (MP VI)? Entry: CCCC1COC(Cn2cncn2)(c2ccc(Cl)cc2Cl)O1 (stereo not shown) [Propiconazole, propiconazole]
200 µg/mL

What is its MIC for Fusarium solani f. sp. pisi (MP VI)? Entry: OB1OCc2cc(Cl)ccc21 [B18]
0.5 µg/mL

What is its MIC for Fusarium solani f. sp. pisi (MP VI)? Entry: Cc1cc(C)nc(Nc2ccccc2)n1 [Pyrimethanil, pyrimethanil]
200 to 400 µg/mL

What is its MIC for Fusarium solani f. sp. pisi (MP VI)? Entry: N#Cc1c(Cl)c(Cl)c(Cl)c(C#N)c1Cl [Chlorothalonil, chlorothalonil]
12.5 to 25 µg/mL

###

test system: Aureobasidium pullulans; experiment: Broth microdilution MIC of individual antifungals; assay type: cell-based; details: individual antifungal, 25% PDB, about 25° C., 72 hours, range over N independent triplicate studies, read-out: Independent MIC
MEASURED PROPERTY: MIC

// worked examples, MIC included
Requested read-out: MIC. Entry: Cc1ccc2c(c1)COB2O
1 µg/mL

Requested read-out: MIC. Entry: COC(=O)NC(=S)Nc1ccccc1NC(=S)NC(=O)OC [Thiophanate-Methyl, thiophanate-methyl]
0.1 to 0.39 µg/mL

---
Requested read-out: MIC. Entry: OB1OCc2cc(Cl)ccc21
0.125 µg/mL

Requested read-out: MIC. Entry: O=C1C2CC=CCC2C(=O)N1SC(Cl)(Cl)Cl (stereo not shown)
0.375 to 0.78 µg/mL

Requested read-out: MIC. Entry: Cc1cc(C)nc(Nc2ccccc2)n1
25 to 50 µg/mL

Requested read-out: MIC. Entry: COC(=O)N(OC)c1ccccc1COc1ccn(-c2ccc(Cl)cc2)n1
0.188 to 0.78 µg/mL

###

system: Sclerotinia homoeocarpa; assay: Broth microdilution MIC of individual antifungals; assay type: cell-based; conditions: Clarireedia homoeocarpa; Sclerotinia homoeocarpa; individual antifungal, 25% PDB, about 25° C., 72 hours; range over N independent triplicate studies; read-out: Independent MIC
Examples of molecules with documented MIC follow.

Requested read-out: MIC. Entry: CC(C)OP(=O)(OC(C)C)SCc1ccccc1
12.5 to 25 µg/mL

Requested read-out: MIC. Entry: CC(C1CC1)C(O)(Cn1cncn1)c1ccc(Cl)cc1 (stereo not shown)
1.56 to 3.12 µg/mL

Requested read-out: MIC. Entry: N#Cc1c[nH]cc1-c1cccc2c1OC(F)(F)O2
0.125 to 0.25 µg/mL

Requested read-out: MIC. Entry: CSC1=N[C@@](C)(c2ccccc2)C(=O)N1Nc1ccccc1
100 to 200 µg/mL

Requested read-out: MIC. Entry: Cc1cc(C)nc(Nc2ccccc2)n1
50 to 100 µg/mL

---
Requested read-out: MIC. Entry: CC1(C(=O)Nc2ccc(O)c(Cl)c2Cl)CCCCC1
64 µg/mL

Requested read-out: MIC. Entry: Nc1ccc2c(c1)COB2O
> 32 µg/mL

Requested read-out: MIC. Entry: O=C(Nc1ccccc1-c1ccc(Cl)cc1)c1cccnc1Cl
0.8 µg/mL

Requested read-out: MIC. Entry: S=C(S)NCCNC(=S)S
6.25 to 12.5 µg/mL

Requested read-out: MIC. Entry: CCOc1ccc(NC(=O)OC(C)C)cc1OCC
100 to 200 µg/mL

###

tested on: Sclerotinia homoeocarpa; experiment: Broth microdilution MIC of individual antifungals; format: cell-based; conditions: Clarireedia homoeocarpa; Sclerotinia homoeocarpa; individual antifungal, 25% PDB, about 25° C., 72 hours; range over N independent triplicate studies; read-out: Independent MIC
MEASURED PROPERTY: MIC

// worked examples, MIC included
Requested read-out: MIC. Entry: Cc1cc(C2CC2)nc(Nc2ccccc2)n1
0.39 µg/mL

Requested read-out: MIC. Entry: COC(=O)Nc1nc2ccccc2[nH]1
0.05 to 0.1 µg/mL

Requested read-out: MIC. Entry: CNC(=S)S [Metam Sodium, Metam sodium]
6.25 µg/mL

Requested read-out: MIC. Entry: CCCCc1c(C)nc(NCC)[nH]c1=O
200 µg/mL

Requested read-out: MIC. Entry: OB1OCc2cc(F)ccc21
0.25 to 1 µg/mL

Requested read-out: MIC. Entry: Cc1ccc(-c2c(Cl)nc(C#N)n2S(=O)(=O)N(C)C)cc1
100 µg/mL

---
Requested read-out: MIC. Entry: COC(=O)NC(=S)Nc1ccccc1NC(=S)NC(=O)OC [Thiophanate-Methyl, thiophanate-methyl]
0.5 to 1 µg/mL

Requested read-out: MIC. Entry: O=C(NCCc1ncc(C(F)(F)F)cc1Cl)c1ccccc1C(F)(F)F
0.78 to 3.12 µg/mL

###

Examples of molecules with documented MIC follow.
tested on: Aspergillus fumigatus; assay: Broth microdilution MIC of individual antifungals; assay type: cell-based; settings: individual antifungal, 25% PDB, about 25° C., 72 hours, range over N independent triplicate studies, read-out: Independent MIC

// worked examples, MIC included
Requested read-out: MIC. Entry: Cc1cc(C)nc(Nc2ccccc2)n1
0.78 to 1 µg/mL

Requested read-out: MIC. Entry: OB1OCc2cc(F)ccc21
0.063 to 0.125 µg/mL

Requested read-out: MIC. Entry: N#Cc1c(Cl)c(Cl)c(Cl)c(C#N)c1Cl
0.1 to 0.2 µg/mL

Requested read-out: MIC. Entry: CC1(C(=O)Nc2ccc(O)c(Cl)c2Cl)CCCCC1
400 µg/mL

Requested read-out: MIC. Entry: Cc1ccc2c(c1)COB2O
0.25 µg/mL

---
Requested read-out: MIC. Entry: COC(=O)N(OC)c1ccccc1COc1ccn(-c2ccc(Cl)cc2)n1
20 to 25 µg/mL

Requested read-out: MIC. Entry: O=C(NCCc1ncc(C(F)(F)F)cc1Cl)c1ccccc1C(F)(F)F
3.12 to 6.25 µg/mL

Requested read-out: MIC. Entry: CNC(=S)S [Metam Sodium, Metam sodium]
25 µg/mL

###

test system: Sclerotinia homoeocarpa; test: Broth microdilution MIC of individual antifungals; type: cell-based; settings: Sclerotinia homoeocarpa; individual antifungal, 25% PDB, about 25° C., 72 hours; range over N independent triplicate studies
Examples of molecules with documented Independent MIC follow.
# include the unit after the value

// worked examples, Independent MIC included
Requested read-out: Independent MIC. Entry: CO/C=C(/C(=O)OC)c1ccccc1COc1cccc(C(F)(F)F)n1 [Picoxystrobin, picoxystrobin]
1.56 µg/mL

Requested read-out: Independent MIC. Entry: [Cl][Sn]([c]1ccccc1)([c]1ccccc1)[c]1ccccc1 [Fentin Chloride, fentin chloride]
12.5 µg/mL

Requested read-out: Independent MIC. Entry: CC(Oc1ccc(Cl)cc1Cl)C(=O)NC(C)(C#N)C(C)C (stereo not shown) [Fenoxanil, fenoxanil]
200 µg/mL

---
Requested read-out: Independent MIC. Entry: C[C@H]1O[C@H](O[C@H]2[C@H](O)[C@@H](O)[C@@H](O)[C@H](O)[C@@H]2O)[C@@H](N)C[C@@H]1NC(=N)C(=O)O [Kasugamycin]
100 µg/mL

###

Examples of compounds with documented MIC follow.
test system: Aspergillus flavus; assay: Broth microdilution MIC of individual antifungals; format: cell-based; details: individual antifungal, 25% PDB, about 25° C., 72 hours, range over N independent triplicate studies, read-out: Independent MIC

What is its MIC for Aspergillus flavus? Entry: OB1OCc2cc(Cl)ccc21
0.5 to 1 µg/mL

Please look at the following compound next.
What is its MIC for Aspergillus flavus? Entry: COCC(=O)N(c1c(C)cccc1C)C(C)C(=O)OC (centres unmarked) [Metalaxyl, metalaxyl]
400 µg/mL
